meta.source: ChEMBL document CHEMBL1201862

- System: SW-620
- measurement.notes: NCI tumour cell line growth inhibition, 48 h
Activity calls are given as the source filed them. Cut-off read from the data, not from the text of the source: active = GI50 up to about 1.1 µM and inactive = higher.
Write down the outcome that applies. Available outcomes: active, inactive

compound	target.desc	category
O=[N+]([O-])c1cccc2nc3ccccc3c(NCCCNc3c4ccccc4nc4cccc([N+](=O)[O-])c34)c12	SW-620	active

Assay outcome for `CN(Cc1cccc2ccccc12)Cc1cccc2ccccc12` : what was it?
inactive

Assay outcome for CCC1C(=O)OCc2c1cc1n(c2=O)C(CC)c2c-1nc1ccccc1c2Cl (stereo not drawn) : what was it?
inactive

###

- System: EKVX
- measurement.notes: NCI tumour cell line growth inhibition, 48 h
The source made the active and inactive calls. Cut-off read from the data, not from the text of the source: active = GI50 up to about 1.1 µM and inactive = higher.
Write down the outcome that applies. Available outcomes: YES (active), NO (inactive)

Example entries begin here.
compound	category
CC(=O)OCC1OC(n2cc([N+](=O)[O-])c(=O)[nH]c2=O)C(OC(C)=O)C(OC(C)=O)C1OC(C)=O (stereo not given)	NO
CCOc1ccc(NC(=O)CC2SC(N)=NC2=O)cc1 (stereo not given)	NO

Assay outcome for `O=C1Nc2c(Cl)cc(Cl)cc2/C1=N/NC(=O)c1ccncc1` : what was it?
NO

Assay outcome for `COc1cc2c(c(OC)c1OC)-c1ccc(SC)cc1C(=O)CC2` : what was it?
YES

###

- Tested on: NCI-H23
- measurement.notes: NCI tumour cell line growth inhibition, 48 h
The source made the active and inactive calls. No stated cut-off is given here; in the data, active = GI50 up to about 1.1 µM and inactive = higher.
Measured GI50, listed per entry.

Examples from the recorded data:
compound	measurement.label	result
CSC1=NS(=O)(=O)c2cc(C(=O)NN(C)C(=O)c3cc4c(cc3Cl)SC(SC)=NS4(=O)=O)c(Cl)cc2S1	GI50	> 10 µM (inactive)
COc1cc(C[C@@]2(C)[C@@H]3CCC[C@H](CO)[C@@]3(C)CC[C@@H]2C)c(Cl)c(OC)c1	GI50	19.6 µM (inactive)
CCCCCCCCC/C=C1/CC(CO)(COC(=O)CC(C(C)C)C(C)C)OC1=O (stereo unspecified)	GI50	13.1 µM (inactive)
COC(=O)Cc1nc2ccccc2o1	GI50	> 100 µM (inactive)
N=C(N)NS(=O)(=O)c1ccc(NC(=O)c2cccc3c(Nc4ccc(S(N)(=O)=O)cc4)c4ccccc4nc23)cc1	GI50	> 100 µM (inactive)
CCCCCCCC(=O)OCC(C[As](=O)(O)O)OC(=O)CCCCCCC (stereo unspecified)	GI50	15.2 µM (inactive)

Requested read-out GI50, target or system NCI-H23, entry `Nc1c2ccccc2nc2nccnc12`
> 100 µM (inactive)

Requested read-out GI50, target or system NCI-H23, entry C=C1C(=O)OC2C1C(OC(=O)/C(C)=C/C)CC(O)(CCl)C1C(O)C3OC3(C)C21O (stereo unspecified)
34.5 µM (inactive)

Requested read-out GI50, target or system NCI-H23, entry COc1ccc(OC(C(=O)O)C(C)C)c2c1CCCC2=O (stereo unspecified)
> 100 µM (inactive)

Requested read-out GI50, target or system NCI-H23, entry `O=C(O)c1ccccc1-c1ccccc1C(=O)Nc1ccc2c(c1)Cc1ccccc1-2`
18 µM (inactive)

###

- System: UACC-257
- measurement.notes: NCI tumour cell line growth inhibition, 48 h
The source made the active and inactive calls. Rule as the data show it: active = GI50 up to about 1.1 µM and inactive = higher.
Write down the outcome that applies. Available outcomes: TRUE for active, FALSE for inactive

molecule	category
N#C/C(C(=O)Nc1ccc(Cl)cc1)=C(/N)N1CCCC1	FALSE
CCCCN1C(=O)CS/C1=N/Nc1nc2c([nH]1)c(=O)n(C)c(=O)n2C	FALSE

Assay outcome for `Cn1c(=O)c2c(ncn2CN2CCN(Cn3cnc4c3c(=O)n(C)c(=O)n4C)CC2)n(C)c1=O` : what was it?
FALSE

Assay outcome for `O=C(c1ccccc1)c1c(C(F)(F)F)[n+]([O-])c2cc(Cl)c(Cl)cc2[n+]1[O-]` : what was it?
TRUE

Assay outcome for `Cc1ccc2c(c1)[n+]([O-])c(N)n[n+]2[O-]` : what was it?
FALSE

Assay outcome for COc1ccc(CCN(C)C(=O)CC(C#N)(c2ccccc2)c2ccc(OC)c(OC)c2)cc1OC (stereo not given) : what was it?
FALSE

Assay outcome for `N[C@@H]1c2c(Br)sc(Br)c2[C@H](O)[C@@H]1O` : what was it?
FALSE

Assay outcome for CCCCCCCC(=O)OCC(C[As](=O)(O)O)OC(=O)CCCCCCC (stereo not given) : what was it?
FALSE

Assay outcome for `CC(=O)Nc1cc(Nc2cc(O)nc(O)n2)ccc1C` : what was it?
FALSE

Assay outcome for `COC(=O)[C@]1(C)CCC[C@]2(C)[C@@H](CCC(=O)C(C)C)[C@]3(C=O)O[C@@H]3C[C@H]21` : what was it?
FALSE

###

- Test system: SN12C
- measurement.notes: NCI tumour cell line growth inhibition, 48 h
Activity calls are given as the source filed them. Cut-off read from the data, not from the text of the source: active = GI50 up to about 1.1 µM and inactive = higher.
Write down the outcome that applies. Available outcomes: label 1 = active, label 0 = inactive

molecule	category
CCc1c(Cl)c(C)cc(O)c1Cl	label 0
CCNC(C)Cc1ccccc1 (stereo not drawn)	label 0
COC1OC2COC(=O)c3cc(O)c(O)c(O)c3-c3c(cc(O)c(O)c3O)C(=O)OC2C(O)C1O (stereo not drawn)	label 0
NC(=O)N/N=C1/CCC(O)CC1CC(=O)O (stereo not drawn)	label 0
CN(C)CCCNC(=O)CCNC(=O)c1cc(NC(=O)c2cc(NC(=O)c3cc(NC(=O)c4nccn4C)cn3C)cn2C)cn1C	label 0
O=C(Nc1nc(C23CC4CC(CC(C4)C2)C3)cs1)c1cc2ccccc2oc1=O	label 0

Assay outcome for `Cc1ccc2c(c1)[n+]([O-])c(N)n[n+]2[O-]` : what was it?
label 0

Assay outcome for CC1C=CC(O)[C@]2(CO)CC3(CCC12)OCCO3 (stereo partly drawn) : what was it?
label 0

Assay outcome for `C/C(Cl)=N\OC(=O)Nc1ccc([N+](=O)[O-])cc1` : what was it?
label 0

Assay outcome for COc1ccc(C2SCC(=O)N2NC(=O)c2ccc(NC(C)=O)cc2)c(OC)c1 (stereo not drawn) : what was it?
label 0

Assay outcome for `CC(=O)Nc1cc(Nc2cc(O)nc(O)n2)ccc1C` : what was it?
label 0

Assay outcome for OC(CCN1CCN(CCOC(c2ccccc2)c2ccccc2)CC1)c1ccccc1 (stereo not drawn) : what was it?
label 0

Assay outcome for C[C@H]1CC[P+](C)(c2ccccc2)C1 (stereo partly drawn) : what was it?
label 0

Assay outcome for `CN(/N=C/c1cccc2cccnc12)c1ccccc1` : what was it?
label 0

###

- Test system: LXFL 529
- measurement.notes: NCI tumour cell line growth inhibition, 48 h
Calls of active or inactive are those of the source. Rule as the data show it: active = GI50 up to about 1.1 µM and inactive = higher.
Write down the outcome that applies. Available outcomes: active, inactive

Assay outcome for COC(=O)C1=Cc2cc3c(cc2[C@H](c2ccc4c(c2)OCO4)C1C(=O)OC)OCO3 (stereo partly specified) : what was it?
inactive

###

Measured GI50, listed per entry.
- Tested on: COLO 205
- measurement.notes: NCI tumour cell line growth inhibition, 48 h
Activity calls are given as the source filed them. Cut-off read from the data, not from the text of the source: active = GI50 up to about 1.1 µM and inactive = higher.

Examples from the recorded data:
molecule	GI50
CCOC(=O)C(c1ccsc1)P(=O)(OCC)OCC (stereo not drawn)	13.3 µM (inactive)
COc1ccc(OC)c2c1C(=O)C(O)=C(Cl)C2=O	> 100 µM (inactive)
CN/N=C(/Cc1occc(=O)c1O)C(=O)Nc1ccc(C)c(C)c1	> 100 µM (inactive)
O/N=C1\CCCCC1C(NO)c1ccccc1 (stereo not drawn)	> 100 µM (inactive)
O=C(NC(N1CCN(c2cc3c(cc2F)c(=O)c(C(=O)O)cn3C2CC2)CC1)(C(F)(F)F)C(F)(F)F)c1ccccc1	19.1 µM (inactive)

Which GI50 reading was recorded for the molecule C[C@H]1[C@H](C)CC[C@]2(C(=O)OC3OC(CO)C(O)C(O)C3O)CC[C@]3(C)C(=CC[C@@H]4[C@@]5(C)C[C@@H](O)[C@@H]6OC(=O)c7cc(O)c(O)c(O)c7-c7c(cc(O)c(O)c7O)C(=O)OC[C@]6(CO)[C@@H]5CC[C@]43C)[C@H]12 (stereo partly drawn) ?
41.7 µM (inactive)

Which GI50 reading was recorded for the molecule `N#C/C(=C\c1ccc([N+](=O)[O-])o1)c1n[nH]c(Cc2ccccc2)n1` ?
1.23 µM (inactive)

Which GI50 reading was recorded for the molecule COc1ccc(CCN(C)C(=O)CC(C#N)(c2ccccc2)c2ccc(OC)c(OC)c2)cc1OC (stereo not drawn) ?
> 100 µM (inactive)

###

- Tested on: OVCAR-5
- measurement.notes: NCI tumour cell line growth inhibition, 48 h
The source made the active and inactive calls. Rule as the data show it: active = GI50 up to about 1.1 µM and inactive = higher.
Write down the outcome that applies. Available outcomes: active, inactive

Example entries begin here.
molecule	category
COC(=O)c1ccc2c(c1)CC1(C2)Cc2ccc3c(c2C1)CCC3 (centres undefined)	inactive
O=[N+]([O-])c1cccc2nc3ccccc3c(NCCCNc3c4ccccc4nc4cccc([N+](=O)[O-])c34)c12	active
Clc1ccccc1/C=C/c1ccnc2ccccc12	inactive
O=[N+]([O-])c1cc2[nH]nnc2c2nonc12	inactive
CSc1ccc(N2C(=O)C3c4[nH]c5ccccc5c4C4CCC(C(C)(C)C)CC4C3C2=O)cc1 (centres undefined)	inactive
CC1OC2OC3C(OCC(O)C3O)OC(=O)[C@]34CCC(C)(C)CC3C3=CCC5[C@@]6(C)C[C@H](O)[C@H](OC7OC(CO)C(O)C(O)C7OC7OCC(OC(=O)CC(C)(O)CC(=O)OC1C(O)C2O)C(O)C7O)[C@@](C)(CO)C6CC[C@@]5(C)[C@]3(C)CC4 (some centres undefined)	inactive
OC12COc3ccccc3C1Oc1ccccc1C2 (centres undefined)	inactive
COc1cc2nc(-c3cccs3)nc(Nc3ccccc3C(=O)NN)c2cc1OC	inactive

Continue with the molecule presented below.
Assay outcome for `CS/C(c1ccccc1)=[N+](/C)[O-]` : what was it?
inactive
